assay: Components of the Cytosolic LPS Sensing Pathway: Gene Identification via Genome-wide siRNA Screen; conditions: RAW264.7 macrophages, IL-1a HTRF, actives lie on both sides, screened at 100 nM (by protocol), cells primed 5 h with Pam3CSK4 first
Screen size: about 53,000 sequences; about 3,700 (7%) were called active.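 Rule for the calls: active = gene knockdowns whose robust z-score for IL-1 alpha signal is at least 2 or at most -2, so actives lie on both sides; inactive = the rest.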 The full list was thinned out, with actives kept by preference.
Outcome codes: active, inactive

                           monomer_sequence  qualitative_label
 0      GGAGAAAUGAAGGUAUACATT against Cert1           inactive
 1    GGAUCACCCAUACAGGAACTT against Pla2g2f             active
 2       CCAAAAGUCACGUUUCUCATT against Per2             active
 3      GGAGGUCCAGAAGAAUUAUTT against Pam16           inactive
 4       GGAAGAAAUGGACCAGCUGTT against Hgh1           inactive
 5       GCCAAGCUUAAGAACUUAATT against Oas3           inactive
 6       CCUCAUGUCUGGCAUCUUGTT against Egr4           inactive
 7      GGUGCUCAAUAAAUGUAAATT against Cd151           inactive
 8       GCAGUGUAAUGUGGCCUACTT against Rorc           inactive
 9      GGACAUGGUACCACAGGAGTT against Tenm4           inactive
10     GGAGGACCCUAUGUCUAAUTT against Adora1             active
11   GCUACUGACCAUUCUAACUTT against Tmem198b           inactive
12     GCAUUUCACCGUCAUGAACTT against Ttll12             active
13      GGAUAGCAAAUUCAUCACATT against Ptprg           inactive
14      GGAUUCGCCUUUUCUACCGTT against Hoxb2           inactive
15      GGGAAGCUUUACUUUUUAATT against Mapk4             active
16   GGAUUUUUAUGAUAGUGACTT against Slc4a1ap           inactive
17      GCAGGUUUAACAACUUACUTT against Dmgdh             active
18       GGAUCCUUCGCUUUUAUCGTT against Nox1           inactive
19   GGCCAAAGUCCAUUCAUUCTT against Olfr1120           inactive
20     GGAAGGGUAAAUUUAGAAGTT against Arrdc3             active
21      GGCCUAUCUGACCUACACCTT against Wnt8a           inactive
22      CCUUGGGACUGACUGUAAGTT against Ptrh2           inactive
23       GGAAAAUGAAGGUUCAGAATT against Pkib           inactive
24  CCAAUAAGUGACCUUUUUUTT against Tmprss11b           inactive
